Target: T1, human GFRα3 expressed with a C-terminal myc-myc-hexahistidine tag (human, UniProt O60609 32-374, biotinylated (sites not given) in ELISA format 2 and in the Octet cross-competition; not in SPR)
T1 construct: also called hGFRα3-mmh; hGFRα3-mmH
T1 sequence (O60609 other isoform, or with tags, fused parts or gaps limits assumed): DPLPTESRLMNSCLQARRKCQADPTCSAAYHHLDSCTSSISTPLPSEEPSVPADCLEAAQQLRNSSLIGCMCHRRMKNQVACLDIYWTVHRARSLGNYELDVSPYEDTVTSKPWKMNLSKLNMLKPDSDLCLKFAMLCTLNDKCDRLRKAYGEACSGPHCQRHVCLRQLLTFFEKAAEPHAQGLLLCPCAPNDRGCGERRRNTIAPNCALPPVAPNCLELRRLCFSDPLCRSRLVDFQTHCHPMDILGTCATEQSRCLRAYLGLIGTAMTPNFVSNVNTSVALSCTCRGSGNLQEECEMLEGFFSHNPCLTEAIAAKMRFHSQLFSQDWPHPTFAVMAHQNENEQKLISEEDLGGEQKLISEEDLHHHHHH
Experiment: Octet cross-competition; biotin-hGFRα3-mmH pre-saturated with first antibody H4H2291S
outcome measure: binding response of second antibody (nm)
# output: bare number, implied unit nm

[in] Which measured binding response of second antibody (nm) value corresponds to H4H2350P (antibody, human IgG4, V domains shown, human IgG4 Fc (H4H)) VH: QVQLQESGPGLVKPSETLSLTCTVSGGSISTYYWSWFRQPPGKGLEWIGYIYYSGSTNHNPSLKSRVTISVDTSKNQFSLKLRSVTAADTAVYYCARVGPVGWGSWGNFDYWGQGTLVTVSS VL: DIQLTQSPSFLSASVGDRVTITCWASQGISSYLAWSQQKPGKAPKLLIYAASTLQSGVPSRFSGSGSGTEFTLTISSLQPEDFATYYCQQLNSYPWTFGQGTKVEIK ?
[out] 1.44

[in] Which measured binding response of second antibody (nm) value corresponds to H4H2342P (antibody, human IgG4, V domains shown, human IgG4 Fc (H4H)) VH: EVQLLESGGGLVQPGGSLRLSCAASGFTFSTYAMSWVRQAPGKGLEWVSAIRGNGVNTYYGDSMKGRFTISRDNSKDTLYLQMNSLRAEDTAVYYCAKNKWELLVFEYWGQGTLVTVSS VL: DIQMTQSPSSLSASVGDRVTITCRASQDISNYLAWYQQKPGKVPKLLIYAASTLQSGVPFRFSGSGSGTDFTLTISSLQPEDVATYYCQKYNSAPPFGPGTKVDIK ?
[out] -0.01

[in] Which measured binding response of second antibody (nm) value corresponds to H4H2291S (antibody, human IgG4, V domains shown, human IgG4 Fc (H4H)) VH: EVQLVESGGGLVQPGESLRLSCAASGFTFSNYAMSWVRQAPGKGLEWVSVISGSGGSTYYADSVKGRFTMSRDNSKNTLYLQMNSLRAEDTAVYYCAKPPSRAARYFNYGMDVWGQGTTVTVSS VL: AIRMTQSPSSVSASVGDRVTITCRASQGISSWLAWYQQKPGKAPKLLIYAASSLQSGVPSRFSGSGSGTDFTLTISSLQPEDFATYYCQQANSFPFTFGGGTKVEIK ?
[out] 0.05
